These measurements were taken from patent US11919908B2.

target: catalytic domain (JH1) of human JAK2 (Homo sapiens); construct: catalytic domain (JH1, amino acids 826-1132) of human JAK2; FLAG (N); experiment: JAK2 LanthaScreen JH1 Binding Assay; details: 50 nM Fluorescent JAK2-JH1 Tracer, 2 hours at 25° C.
Sequence (O60674 826-1132): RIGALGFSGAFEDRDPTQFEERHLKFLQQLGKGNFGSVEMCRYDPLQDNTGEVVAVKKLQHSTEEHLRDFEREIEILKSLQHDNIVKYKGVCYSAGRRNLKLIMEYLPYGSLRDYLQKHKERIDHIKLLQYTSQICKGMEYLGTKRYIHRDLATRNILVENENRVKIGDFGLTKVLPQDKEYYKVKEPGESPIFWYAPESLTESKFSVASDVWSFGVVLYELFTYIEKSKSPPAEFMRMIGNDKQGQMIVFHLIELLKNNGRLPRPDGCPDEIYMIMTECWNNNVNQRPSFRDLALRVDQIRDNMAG
pIC50: −log10 of the molar value.
pIC50: recorded values

Would you please look over these solved cases?
compound: CCOc1ccccc1-c1c(-c2ccc(S(=O)(=O)N(C)C)cc2)[nH]c2nc(N)[nH]c(=O)c12 [Example 70]
target desc: catalytic domain (JH1) of human JAK2 (Homo sapiens)
pIC50: < 5.60

compound: CN(C)S(=O)(=O)c1ccc(-c2[nH]c3nc(N)[nH]c(=O)c3c2C2=CCCC2)cc1 [Example 47]
target desc: catalytic domain (JH1) of human JAK2 (Homo sapiens)
pIC50: 6.30 to 7.00

compound: COc1cccc(F)c1-c1c(-c2ccc(S(=O)(=O)N(C)C)cc2)[nH]c2nc(N)[nH]c(=O)c12 [Example 68]
target desc: catalytic domain (JH1) of human JAK2 (Homo sapiens)
pIC50: < 5.60

compound: CN(C)S(=O)(=O)c1ccc(-c2[nH]c3nc(N)[nH]c(=O)c3c2-c2cccc3c2cnn3C)cc1 [Example 16]
target desc: catalytic domain (JH1) of human JAK2 (Homo sapiens)
pIC50: < 5.60

compound: CN(C)S(=O)(=O)c1ccc(-c2[nH]c3nc(N)[nH]c(=O)c3c2-c2ccccc2OC(F)F)cc1 [Example 19]
target desc: catalytic domain (JH1) of human JAK2 (Homo sapiens)
pIC50: < 5.60

compound: CN(C)S(=O)(=O)c1ccc(-c2[nH]c3nc(N)[nH]c(=O)c3c2-c2cnn(Cc3ccccc3)c2)cc1 [Example 30]
target desc: catalytic domain (JH1) of human JAK2 (Homo sapiens)
pIC50: < 5.60

compound: Nc1nc2[nH]c(-c3ccccc3)c(-c3ccccc3C(F)(F)F)c2c(=O)[nH]1 [Example 59]
target desc: catalytic domain (JH1) of human JAK2 (Homo sapiens)
pIC50: < 5.60

compound: CN(C)S(=O)(=O)c1ccc(-c2[nH]c3nc(N)[nH]c(=O)c3c2-c2cccc3cn[nH]c23)cc1 [Example 20]
target desc: catalytic domain (JH1) of human JAK2 (Homo sapiens)
pIC50: < 5.60

stdin: Would you kindly share the measured pIC50 for CN(C)S(=O)(=O)c1ccc(-c2[nH]c3nc(N)[nH]c(=O)c3c2-c2cnn(Cc3ccc(C#N)cc3)c2)cc1 [Example 31] ?
stdout: 5.60 to 6.00

stdin: Would you kindly share the measured pIC50 for COc1ccccc1-c1c(-c2ccc(CN3CCC(S(C)(=O)=O)CC3)cc2)[nH]c2nc(N)[nH]c(=O)c12 [Example 53] ?
stdout: < 5.60

stdin: Would you kindly share the measured pIC50 for Cc1cccc(-c2c(-c3ccc(S(=O)(=O)N(C)C)cc3)[nH]c3nc(N)[nH]c(=O)c23)c1 [Example 2] ?
stdout: 5.60 to 6.00

stdin: Would you kindly share the measured pIC50 for CN(C)S(=O)(=O)c1ccc(-c2[nH]c3nc(N)[nH]c(=O)c3c2-c2cccc3c2OCCC3)cc1 [Example 10] ?
stdout: < 5.60

stdin: Would you kindly share the measured pIC50 for COc1ccccc1-c1c(-c2ccc(C(=O)N3CCOCC3)cc2)[nH]c2nc(N)[nH]c(=O)c12 [Example 54] ?
stdout: < 5.60

stdin: Would you kindly share the measured pIC50 for COc1cc(C(N)=O)ccc1-c1c(-c2ccc(S(=O)(=O)N(C)C)cc2)[nH]c2nc(N)[nH]c(=O)c12 [Example 23] ?
stdout: < 5.60

stdin: Would you kindly share the measured pIC50 for CN(C)S(=O)(=O)c1ccc(-c2[nH]c3nc(N)[nH]c(=O)c3c2-c2cccc3ccoc23)cc1 [Example 3] ?
stdout: < 5.60
